System: HEK-293T
Assay: Multiplex assay against HEK293T
Format: toxicity, cell-based
Conditions: human, 12 h, 10 µM, compound concentration 10 uM, replicate 2
measurement-label: Population Normal (%)
Don't forget the unit after the value.

-- ask Can you share its Population Normal (%)? I mean this compound: CCCn1c(=O)c2[nH]c(C3CCCC3)nc2n(CCC)c1=O
-- reply 81%

-- ask Can you share its Population Normal (%)? I mean this compound: CC(C)(C)c1ccc(S(=O)(=O)Nc2ccc(Cl)cc2C(=O)c2cc[n+]([O-])cc2)cc1
-- reply 94%

-- ask Can you share its Population Normal (%)? I mean this compound: CN(C)CCCc1cc(C(=O)Nc2ccc(-c3ccncc3)cc2)ccc1O.Cl.Cl
-- reply 90%

-- ask Can you share its Population Normal (%)? I mean this compound: Cc1ccc(F)cc1C(=O)Nc1ccc(C(=O)N2Cc3cccn3Cc3ccccc32)c(Cl)c1
-- reply 93%

More entries:
-- ask Can you share its Population Normal (%)? I mean this compound: O=C1COc2nccc(-c3ccccc3F)c2CN1Cc1cc(C(F)(F)F)cc(C(F)(F)F)c1
-- reply 94%

====

Documented Population Mitochondria Different-Phenotype (%) across a set of compounds
Test system: HEK-293T
Assay: Multiplex assay against HEK293T
Type: toxicity, cell-based
Conditions: human, 24 h, 10 µM, compound concentration 10 uM, replicate 1
Response body: numeric value in %, unit text excluded.

-- ask Can you share its Population Mitochondria Different-Phenotype (%)? I mean this compound: c1cc(OCCCN2CCCCC2)ccc1CN1CCCCC1
-- reply 47

-- ask Can you share its Population Mitochondria Different-Phenotype (%)? I mean this compound: C[C@@H]1C[C@H]2[C@@H]3CCC4=CC(=O)C=C[C@]4(C)[C@@]3(F)[C@@H](O)C[C@]2(C)[C@@]1(O)C(=O)CO
-- reply 30

-- ask Can you share its Population Mitochondria Different-Phenotype (%)? I mean this compound: O=C(O)c1cc2ccccc2c(Cc2c(O)c(C(=O)O)cc3ccccc23)c1O
-- reply 27

-- ask Can you share its Population Mitochondria Different-Phenotype (%)? I mean this compound: O=C(NCCO)c1cccc(-c2cc(Nc3ccc(OC(F)(F)F)cc3)ncn2)c1
-- reply 61

-- ask Can you share its Population Mitochondria Different-Phenotype (%)? I mean this compound: CNC[C@H](O)c1ccc(O)c(O)c1 [EPINEPHRINE]
-- reply 50

-- ask Can you share its Population Mitochondria Different-Phenotype (%)? I mean this compound: C[C@H](NC(=O)c1c(C(F)F)nn(C)c1Oc1cccc(C(F)(F)F)c1)c1ccc(C(=O)O)cc1
-- reply 46

-- ask Can you share its Population Mitochondria Different-Phenotype (%)? I mean this compound: C[C@H]1[C@H]2CC[C@H]3[C@@H]4CC=C5C[C@@H](N(C)C)CC[C@]5(C)[C@H]4CC[C@]23CN1C
-- reply 38

-- ask Can you share its Population Mitochondria Different-Phenotype (%)? I mean this compound: CN(C)CCCc1cc(C(=O)Nc2ccc(-c3ccncc3)cc2)ccc1O.Cl.Cl
-- reply 38

Now look at this entry.
-- ask Can you share its Population Mitochondria Different-Phenotype (%)? I mean this compound: CC(=O)NCCc1c(Cc2ccccc2)[nH]c2ccccc12
-- reply 40

====

Test system: Fibroblast
Experiment: Multiplex assay against human fibroblast
Type: toxicity, cell-based
Conditions: 48 h, 1 µM, compound concentration 1 uM, replicate 2
Tag: Yes if measured Population Healthy Nuclei (%) is not below 50%, No if it is.

-- ask Could you verify whether the entry C[C@@H]1C[C@H]2[C@@H]3CCC4=CC(=O)C=C[C@]4(C)[C@@]3(F)[C@@H](O)C[C@]2(C)[C@@]1(O)C(=O)CO shows Population Healthy Nuclei (%) of no less than 50%?
-- reply No

-- ask Could you verify whether the entry CCOc1c2c(c(OCC)c3ncccc13)CN(c1ccc(CS(=O)(=O)NC(=O)Cc3ccccc3OC)cc1C)C2=O shows Population Healthy Nuclei (%) of no less than 50%?
-- reply No
